- Tested Target: Homeobox protein Hox-A13 (Mus musculus) (UniProt Q62424)
- Sequence (Q62424 whole entry, looked up): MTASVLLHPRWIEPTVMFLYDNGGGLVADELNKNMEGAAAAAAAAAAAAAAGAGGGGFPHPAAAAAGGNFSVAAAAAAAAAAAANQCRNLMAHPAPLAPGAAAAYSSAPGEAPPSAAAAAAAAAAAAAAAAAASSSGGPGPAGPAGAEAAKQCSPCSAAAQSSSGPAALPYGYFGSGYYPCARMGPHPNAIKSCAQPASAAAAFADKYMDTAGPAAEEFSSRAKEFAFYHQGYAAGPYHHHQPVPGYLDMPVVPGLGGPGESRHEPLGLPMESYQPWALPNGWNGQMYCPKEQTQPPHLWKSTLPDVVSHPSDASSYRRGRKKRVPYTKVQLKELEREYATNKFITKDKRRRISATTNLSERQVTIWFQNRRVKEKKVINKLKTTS
- Assay Info: inhibitors of HoxA13-DNA binding, primary screen, biochemical, fluorescence polarization, labeled oligonucleotide (AID 1185)
- Recorded Conditions: 15 min, higher = more signal, called active from +8 up or from −8 down
I'd appreciate it if you could supply z-score values for the items below.
Please state the value as a number alone, without comment.

IN: Tell me the measured z-score of CC(C)[C@H](NC(=O)OC(C)(C)C)[C@@H](O)CC(=O)OC(C)(C)C , please.
OUT: -0.799

IN: What do we get for C=C(/C(=C/C[C@@H](OC(=O)c1ccncc1)c1ccc(OCCO)cc1)c1cnc2ccccc2c1)C(C)C ?
OUT: -5.46

IN: What do we get for CCOC(=O)C[C@H]1[C@H](OC(=O)c2cc3ccccc3oc2=O)[C@@H](NC(=O)c2ccc3ccccc3n2)c2cc(OCCCO)ccc2N1C(=O)c1ccccc1 ?
OUT: -0.763

IN: What do we get for NCCCCCNC(=O)[C@@H]1C[C@@H]2C(=O)N3CCC[C@H]3C(=O)N2[C@@H]1c1cccc(OCCO)c1 ?
OUT: -3.71

* * *

- Assay Info: binders of probe aHhip on microarray, primary screen, stem cell growth factor project, biochemical, small-molecule microarray, fluorescence 635/667 (AID 1087);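 note: score merges spot fluorescence at 667nm with spot signal to noise ratio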
- Recorded Conditions: higher = more signal
I'd appreciate it if you could supply composite z-score values for the items below.
Please state the value as a number alone, without comment.

IN: Tell me the measured composite z-score of C[C@@H]1CCC2C(=O)N(Cc3ccccc3)C[C@@H](O)CN2[C@H]1c1ccc(Br)cc1 (some centres not stated) , please.
OUT: -0.0618

IN: What do we get for C[C@H]1CC[C@@H](C(=O)O)N[C@@H]1c1ccc(C#CCN(C)C)cc1 ?
OUT: -0.119

IN: What do we get for CCCC[C@H]1OB(O)C[C@H]2C1=C(C)C[C@H]1C(=O)N(C)C(=O)[C@H]12 ?
OUT: -0.156

IN: What do we get for O=C1O[C@@H](c2ccccc2)[C@@H](c2ccccc2)N2[C@@H](c3ccc(OCCO)cc3)[C@]3(C(=O)Nc4ccccc43)[C@@H](C(=O)N3CCN(c4ncccn4)CC3)[C@H]12 ?
OUT: 0.106

IN: What do we get for CCOC(=O)NN=C1C[C@@H](O)[C@@H](O)[C@@H]2[C@@H]3C(=O)N(C4CCCCC4)C(=O)[C@@H]3CC[C@@H]12 ?
OUT: -0.132

IN: What do we get for C=CCC(OC(C)=O)[C@@H]1[C@@H](N(Cc2cc3ccccc3o2)C(=O)Cc2ccc(F)cc2)c2cc(OCCCO)ccc2N1C(=O)Cc1ccc(OC)cc1 (some centres not stated) ?
OUT: 0.0373

IN: What do we get for NC(=O)NCC#Cc1ccc2c(c1)[C@]1(C(=O)N2)[C@H](c2ccc(O)cc2)N2[C@H](c3ccccc3)[C@H](c3ccccc3)OC(=O)[C@H]2[C@@H]1C(=O)N1CCCCCCC1 ?
OUT: 0.257

* * *

- Tested Target: Torsin-1A-interacting protein 2 (Homo sapiens)
- Assay Info: LULL1 binders on small-molecule microarray, primary screen, cell lysate, human LULL1 lysate, 635/667 nm fluorescence (AID 1092);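 note: probe is lysate of COS7 cells overexpressing human LULL1; score merges per-feature 667 nm fluorescence with signal-to-noise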
- Recorded Conditions: hLULL1 lysate binding, 635 nm fluorescence, higher = more signal
Endpoint Name: composite z-score
Please state the value as a number alone, without comment.

IN: Tell me the measured composite z-score of CO[C@@H]1COC(=O)CCC[C@@H](C)[C@H](OC)COC(=O)CCC[C@H]1C , please.
OUT: -0.431

IN: What do we get for CCc1cccc(NC(=O)O[C@H]2[C@H](OC(=O)Nc3ccc4c(c3)OCO4)[C@@H](OC(=O)Nc3ccc4c(c3)OCO4)[C@@H](OC)O[C@@H]2CO)c1 ?
OUT: 3.59

IN: What do we get for COC(=O)[C@@H]1CC[C@H](C)[C@@H](c2ccc(C)cc2)N1C(=O)c1ccc(C=NOC(C)CN2CCCCc3nc(C)c(C)cc32)cc1 (some centres not stated) ?
OUT: -0.0101

IN: What do we get for O=C1C[C@@H](O)[C@@H](O)[C@@H]2[C@@H]3C(=O)N(Cc4ccc5c(c4)OCO5)C(=O)[C@@H]3CC[C@@H]12 ?
OUT: 1.01

IN: What do we get for [N-]=[N+]=NCc1ccccc1C[C@]1(C(=O)NCc2ccccc2)N=C(c2ccc(OCCCO)cc2)O[C@H]1c1ccccc1N=[N+]=[N-] ?
OUT: 3.17

IN: What do we get for O=C(CS)NCCCCCNC(=O)[C@@H]1C[C@@H]2C(=O)N[C@@H](Cc3ccccc3)C(=O)N2[C@@H]1c1ccc(O)cc1 ?
OUT: 3.06

IN: What do we get for COC(=O)C1=C(C)[C@@H](O)[C@@H](C)[C@H](c2c(OC)c(OC)c(C)c(OC)c2OC)O1 ?
OUT: -0.166

* * *

- System: Chordin-like protein 2 (CHRDL2)
- Assay Info: CHRDL2 small-molecule binders, primary screen, biochemical, small-molecule microarray, 635 nm fluorescence (AID 1126);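 note: printed compound slides probed with Chrdl2 protein at 4 µg/mL for 1 h at 4 C; score merges 667 nm emission intensity with signal to noise over three replicate slides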
- Recorded Conditions: small-molecule microarray binding, fluorescence 635 nm; higher = more signal
Endpoint Name: composite z-score

IN: Tell me the measured composite z-score of CC[C@@H](c1ccccc1)n1c(=O)n2n(c1=O)[C@H]1[C@H](O)[C@@H]3O[C@@H]3C(=NOCC=C(C)CCC=C(C)C)[C@H]1CC2 , please.
OUT: 0.552

IN: What do we get for CCOC(=O)NN=C1C[C@@H](O)[C@@H](O)[C@@H]2[C@@H]3C(=O)N(CC)C(=O)[C@@H]3CC[C@@H]12 ?
OUT: 0.0151

IN: What do we get for CO[C@@H]1COC(=O)CC=C[C@@H](C)COC(=O)[C@H](COCc2ccccc2)NC(=O)CC=C[C@H]1C ?
OUT: 1.48

IN: What do we get for C=C(/C(=C/C[C@H](OC(=O)c1ccncc1)c1ccc(OCCO)cc1)c1cnc2ccccc2c1)C(C)C ?
OUT: 1.14

* * *

I'd appreciate it if you could supply z-score values for the items below.
- Assay Info: MM1S cell viability effects, profiling panel, calcein-AM fluorescence, 48 h, basal (AID 1165);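 note: viability of MM1S multiple myeloma cells under basal unstimulated conditions; test concentration not given here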
- Recorded Conditions: higher = more signal
Please state the value as a number alone, without comment.

IN: Tell me the measured z-score of COCCNC(=O)OCC1CCCC2(CC(OC(=O)NCCc3ccc(F)cc3)CC(CCC(=O)N[C@@H](C)C(=O)OC)O2)O1 (stereo partly drawn) , please.
OUT: -0.491

IN: What do we get for C[C@H](c1ccccc1)N1C(=O)[C@H]2[C@H]3[C@H](O)[C@H](O)CC(=O)[C@@H]3CC[C@H]2C1=O ?
OUT: -0.0752

IN: What do we get for CO[C@@H]1COC(=O)[C@H](C)NC(=O)[C@@H](C)COC(=O)CCC[C@H]1C ?
OUT: -0.3

IN: What do we get for CO[C@@H]1COC(=O)CC=C[C@@H](C)[C@@H]2C=C[C@H](O)[C@@H](COC(=O)[C@H](C)NC(=O)CC=C[C@H]1C)O2 ?
OUT: 0.23

IN: What do we get for CN(C)c1ccc(C(O)C2C=CC3C(=O)N(c4ccccc4)C(=O)C3N2Nc2ccccc2F)cc1 (stereo not drawn) ?
OUT: -0.343

IN: What do we get for CCOC(=O)CCN1C(=O)[C@H]2[C@H]3[C@H](O)[C@H](O)CC(=NNC(=O)OCc4ccc(OC)cc4)[C@@H]3CC[C@H]2C1=O ?
OUT: 0.717

IN: What do we get for O=C1CCCC2OC12C(O)CCc1ccccc1 (stereo not drawn) ?
OUT: 0.561

IN: What do we get for CC(=O)C[C@H](O)[C@@H](NC(=O)OC(C)(C)C)C(C)C ?
OUT: -0.476

* * *

- Assay Info: Plasmodium falciparum growth inhibition, primary screen, strain 3D7, DAPI fluorescence, 100 nL (AID 1184);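 note: parasites grown inside human red blood cells in medium with human serum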
- Recorded Conditions: P. falciparum 3D7 growth, 3 d, higher = more signal
Please enter fulfilled where z-score is greater than or equal to 0.07, and not fulfilled where it is lower.

IN: Is the recorded value of z-score equal to or greater than 0.07 for this molecule? CCOc1ccc(N2C(=O)/C(=C/C=C/c3ccccc3OC)S(=O)(=O)C2c2cccc([N+](=O)[O-])c2)cc1 (configuration not stated)
OUT: fulfilled

IN: What do we get for C=CC[C@@H]1C=C[C@H](ON=C2c3cc(OC)ccc3O[C@H](c3cccc(OC)c3)[C@H]2O)[C@@H](CO)O1 ?
OUT: fulfilled

IN: What do we get for COCCCNC(=O)[C@@]1(C)c2ccccc2C(=O)N(Cc2ccc(OC(F)(F)F)cc2)[C@H]1c1ccc(CO)cc1 ?
OUT: not fulfilled

IN: What do we get for C/C=C\[C@@H](NCc1ccccc1Br)[C@@H](O)Cc1ccccc1 ?
OUT: not fulfilled

IN: What do we get for CC(CCN1CCc2nc(-c3ccccc3)c(-c3ccccc3)cc2C1)=NO[C@@H](C)c1cn([C@H](CO)Cc2ccccc2)nn1 ?
OUT: not fulfilled

IN: What do we get for COc1ccc(COC(=O)NN=C2C[C@@H](O)[C@@H](O)[C@@H]3[C@@H]4C(=O)N(Cc5ccc6c(c5)OCO6)C(=O)[C@@H]4CC[C@@H]23)cc1 ?
OUT: fulfilled

// data source = PubChem BioAssay
